# Measured On: rat apelin receptor-EGFP (Rattus norvegicus, UniProt Q9JHG3)
# Construct: expressed in transfected cells
# Sequence (Q9JHG3 1-377): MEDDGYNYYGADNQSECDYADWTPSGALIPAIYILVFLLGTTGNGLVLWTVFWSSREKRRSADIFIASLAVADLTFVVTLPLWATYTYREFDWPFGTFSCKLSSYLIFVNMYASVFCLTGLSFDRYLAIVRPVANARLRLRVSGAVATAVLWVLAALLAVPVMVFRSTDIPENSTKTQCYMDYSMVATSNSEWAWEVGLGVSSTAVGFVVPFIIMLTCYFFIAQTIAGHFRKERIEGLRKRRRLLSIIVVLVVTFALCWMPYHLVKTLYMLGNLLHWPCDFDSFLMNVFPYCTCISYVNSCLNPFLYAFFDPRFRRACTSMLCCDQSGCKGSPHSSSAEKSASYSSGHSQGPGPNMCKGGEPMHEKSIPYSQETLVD
# Experiment Notes: [125I]pE13F radioligand binding on CHO membrane preparations
# Experimental Parameters: competition with [125I]pE13F, CHO membranes; read-out: Ki for the apelin receptor (affinity)
Where a SMILES comes first, the peptide text is derived from it.
The following molecules are shown together with reported Ki values.
Expressed in nM, but write only the number.

- Molecule: "CSCC[C@H](NC(=O)[C@@H]1CCCN1C(=O)[C@@H](C)NC(=O)[C@H](CCCCN)NC(=O)[C@H](Cc1c[nH]cn1)NC(=O)[C@H](CO)NC(=O)[C@H](CC(C)C)NC(=O)[C@H](CCCNC(=N)N)NC(=O)[C@@H]1CCCN1C(=O)[C@H](CCCNC(=N)N)NC(=O)[C@@H]1CCC(=O)N1)C(=O)N1CCC[C@H]1C(=O)N[C@@H](Cc1ccccc1)C(=O)O [pE13F(D-Ala^9)] (HELM PEPTIDE1{[Glp].R.P.R.L.S.H.K.[dA].P.M.P.F}$$$$V2.0; C-terminus assumed)"
  Unit: "nM"
  Ki: 4.3

Exam item: Can you share its Ki? I mean this molecule: CSCC[C@H](NC(=O)[C@@H]1CCCN1C(=O)CNC(=O)[C@H](CCCCN)NC(=O)[C@H](Cc1c[nH]cn1)NC(=O)[C@H](CO)NC(=O)[C@H](CC(C)C)NC(=O)[C@H](CCCNC(=N)N)NC(=O)[C@@H]1CCCN1C(=O)[C@H](CCCNC(=N)N)NC(=O)[C@H](CCC(N)=O)NC(=O)[C@H](CCCNC(=N)N)NC(=O)[C@H](CCCNC(=N)N)NC(=O)[C@H](Cc1ccccc1)NC(=O)[C@@H](N)CCCCN)C(=O)N1CCC[C@H]1C(=O)N[C@@H](Cc1ccccc1)C(=O)O [K17F, reference compound]
Marked response: 0.3

###

# Measured On: rat apelin receptor-EGFP (Rattus norvegicus)
# Construct: expressed in transfected cells
# Sequence (Q9JHG3 1-377): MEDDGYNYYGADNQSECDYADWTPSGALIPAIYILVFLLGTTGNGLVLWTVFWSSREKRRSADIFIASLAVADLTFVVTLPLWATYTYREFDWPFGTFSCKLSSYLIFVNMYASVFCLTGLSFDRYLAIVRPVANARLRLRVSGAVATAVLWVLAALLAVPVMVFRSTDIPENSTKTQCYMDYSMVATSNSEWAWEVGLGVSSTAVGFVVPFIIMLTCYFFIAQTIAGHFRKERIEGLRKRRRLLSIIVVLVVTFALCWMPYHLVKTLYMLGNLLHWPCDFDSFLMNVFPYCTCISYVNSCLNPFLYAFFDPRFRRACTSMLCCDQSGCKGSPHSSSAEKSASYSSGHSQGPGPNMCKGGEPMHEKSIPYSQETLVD
# Experiment Notes: Inhibition of forskolin-induced cAMP production (HTRF)
# Format: cell-based
# Experimental Parameters: 10^−6 M forskolin; read-out: IC50 inhibition of forskolin-induced cAMP production
Where a SMILES comes first, the peptide text is derived from it.
Readout Name: pIC50
Conceptually, pIC50 converts a concentration in mol/L into minus its log10.

These recorded examples may help you get a feel for the data.
- Compound: "CSCC[C@H](NC(=O)[C@@H]1CCCN1C(=O)CNC(=O)[C@H](CCCCN)NC(=O)C(C)(C)NC(=O)[C@H](CO)NC(=O)[C@H](CC(C)C)NC(=O)[C@H](CCCNC(=N)N)NC(=O)[C@@H]1CCCN1C(=O)[C@H](CCCNC(=N)N)NC(=O)[C@@H]1CCC(=O)N1)C(=O)N1CCC[C@H]1C(=O)N[C@@H](Cc1ccccc1)C(=O)O [pE13F(Aib^7)] (HELM PEPTIDE1{[Glp].R.P.R.L.S.[Aib].K.G.P.M.P.F}$$$$V2.0; C-terminus assumed)"
  pIC50: 8.92
- Compound: "CSCC[C@H](NC(=O)[C@@H]1CCCN1C(=O)CNC(=O)[C@H](CCCCN)NC(=O)[C@H](Cc1c[nH]cn1)NC(=O)[C@H](CO)NC(=O)[C@H](CC(C)C)NC(=O)[C@H](CCCNC(=N)N)NC(=O)[C@@H]1CCCN1C(=O)[C@H](CCCNC(=N)N)NC(C)=O)C(=O)N1CCC[C@H]1C(=O)N[C@@H](Cc1ccccc1)C(=O)O [Ac—R12F]"
  pIC50: 8.62
- Compound: "CSCC[C@H](NC(=O)[C@@H]1CCCN1C(=O)CNC(=O)[C@H](CCCCN)NC(=O)[C@H](Cc1c[nH]cn1)NC(=O)[C@H](CO)NC(=O)[C@H](CC(C)C)NC(=O)[C@H](CCCNC(=N)N)NC(=O)[C@@H]1CCCN1C(=O)[C@H](CCCNC(=N)N)NC(=O)[C@H](CCC(N)=O)NC(=O)[C@H](CCCNC(=N)N)NC(=O)[C@H](CCCNC(=N)N)NC(=O)[C@H](Cc1ccccc1)NC(=O)[C@@H](N)CCCCN)C(=O)N1CCC[C@H]1C(=O)N[C@@H](Cc1ccccc1)C(=O)O [K17F, reference compound]"
  pIC50: 9.52

Exam item: Can you share its pIC50? I mean this compound: CSCC[C@H](NC(=O)[C@@H]1CCCN1C(=O)CNC(=O)[C@H](CCCCN)NC(=O)[C@H](Cc1c[nH]cn1)NC(=O)[C@H](CO)NC(=O)[C@H](CC(C)C)NC(=O)[C@H](CCCNC(=N)N)NC(=O)[C@@H]1CCCN1C(=O)[C@H](CCCNC(=N)N)NC(=O)[C@@H]1CCC(=O)N1)C(=O)N1CCC[C@H]1C(=O)N[C@@H](Cc1ccc(Br)cc1)C(=O)O [pE13(4Br-Phe^13)]
Marked response: 10.00

Exam item: Can you share its pIC50? I mean this compound: CCCC[C@H](NC(=O)[C@@H]1CCCN1C(=O)[C@@H](C)NC(=O)[C@H](CCCCN)NC(=O)C(C)(C)NC(=O)[C@H](CO)NC(=O)[C@@H](CC(C)C)NC(=O)[C@H](CCCNC(=N)N)NC(=O)[C@@H]1CCCN1C(=O)[C@H](CCCNC(=N)N)NC(C)=O)C(=O)N1CCC[C@H]1C(=O)N[C@@H](Cc1ccc(Br)cc1)C(=O)O [P26] (HELM PEPTIDE1{[ac].R.P.R.[dL].S.[Aib].K.[dA].P.[Nle].P.[O=C(O)[C@H](Cc1ccc(Br)cc1)N[*:1]]}$$$$V2.0)
Marked response: 8.36

Exam item: Can you share its pIC50? I mean this compound: CSCC[C@H](NC(=O)[C@@H]1CCCN1C(=O)[C@@H](C)NC(=O)[C@H](CCCCN)NC(=O)[C@H](Cc1c[nH]cn1)NC(=O)[C@H](CO)NC(=O)[C@H](CC(C)C)NC(=O)[C@H](CCCNC(=N)N)NC(=O)[C@@H]1CCCN1C(=O)[C@H](CCCNC(=N)N)NC(=O)[C@@H]1CCC(=O)N1)C(=O)N1CCC[C@H]1C(=O)N[C@@H](Cc1ccccc1)C(=O)O [pE13F(D-Ala^9)] (HELM PEPTIDE1{[Glp].R.P.R.L.S.H.K.[dA].P.M.P.F}$$$$V2.0; C-terminus assumed)
Marked response: 7.37

###

The following compounds are shown together with reported Ki values.
# Measured On: rat apelin receptor-EGFP (Rattus norvegicus)
# Construct: expressed in transfected cells
# Experiment Notes: [125I]pE13F radioligand binding on CHO membrane preparations
# Experimental Parameters: competition with [125I]pE13F, CHO membranes; read-out: Ki for the apelin receptor (affinity)
Where a SMILES comes first, the peptide text is derived from it.
Expressed in nM, but write only the number.

These recorded examples may help you get a feel for the data.
- Compound: "CSCC[C@H](NC(=O)[C@@H]1CCCN1C(=O)CNC(=O)[C@H](CCCCN)NC(=O)[C@H](Cc1c[nH]cn1)NC(=O)[C@H](CO)NC(=O)[C@H](CC(C)C)NC(=O)[C@H](CCCNC(=N)N)NC(=O)[C@@H]1CCCN1C(=O)[C@H](CCCNC(=N)N)NC(=O)[C@@H]1CCC(=O)N1)C(=O)N1CCC[C@H]1C(=O)N[C@@H](Cc1ccc(Br)cc1)C(=O)O"
  Ki / nM: 0.06
- Compound: "CSCC[C@H](NC(=O)[C@@H]1CCCN1C(=O)CNC(=O)[C@H](CCCCN)NC(=O)[C@H](Cc1c[nH]cn1)NC(=O)[C@H](CO)NC(=O)[C@H](CC(C)C)NC(=O)[C@H](CCCNC(=N)N)NC(=O)[C@@H]1CCCN1C(=O)[C@H](CCCNC(=N)N)NC(C)=O)C(=O)N1CCC[C@H]1C(=O)N[C@@H](Cc1ccccc1)C(=O)O [Ac—R12F]"
  Ki / nM: 1.4

Exam item: Can you share its Ki? I mean this compound: CSCC[C@H](NC(=O)[C@@H]1CCCN1C(=O)CNC(=O)[C@H](CCCCN)NC(=O)C(C)(C)NC(=O)[C@H](CO)NC(=O)[C@H](CC(C)C)NC(=O)[C@H](CCCNC(=N)N)NC(=O)[C@@H]1CCCN1C(=O)[C@H](CCCNC(=N)N)NC(=O)[C@@H]1CCC(=O)N1)C(=O)N1CCC[C@H]1C(=O)N[C@@H](Cc1ccccc1)C(=O)O [pE13F(Aib^7)] (HELM PEPTIDE1{[Glp].R.P.R.L.S.[Aib].K.G.P.M.P.F}$$$$V2.0; C-terminus assumed)
Marked response: 2.6
